assay: Metabolic stability in rat liver microsomes after 10 mins; format: ADME, Microsome; conditions: read-out: Stability
READOUT NAME: remaining at 10 min (%)

Example cases with answers are listed next.
C[C@@H]1CN(C(=O)c2ccccc2)[C@@H](C)CN1C(=O)C(=O)c1c[nH]c2cccc(F)c12 :: 0
CC1CN(C(=O)C(=O)c2c[nH]c3cccc(F)c23)CCN1C(=O)c1ccccc1 (stereo not drawn) :: 32
O=C(C(=O)N1CCN(C(=O)c2ccccc2)CC1)c1c[nH]c2cccc(F)c12 :: 51
CC(C)CC1CN(C(=O)c2ccccc2)CCN1C(=O)C(=O)c1c[nH]c2cccc(F)c12 (stereo not drawn) :: 7
COc1cccc2[nH]cc(C(=O)C(=O)N3CCN(C(=O)c4ccccc4)C[C@H]3C)c12 :: 56

(1) CCCCCC1CN(C(=O)c2ccccc2)CCN1C(=O)C(=O)c1c[nH]c2cccc(F)c12 (stereo not drawn)
(2) CC(C)C1CN(C(=O)c2ccccc2)CCN1C(=O)C(=O)c1c[nH]c2cccc(F)c12 (stereo not drawn)
Rank 1 against 2 by their remaining at 10 min values and give the higher one. Returns: label corresponding to the selected item. 2
